# target desc: T1, hAIPL1 P376S mutant, His6-tagged (human, UniProt Q9NZN9 1-384, P376S)
# T1 sequence (looked up): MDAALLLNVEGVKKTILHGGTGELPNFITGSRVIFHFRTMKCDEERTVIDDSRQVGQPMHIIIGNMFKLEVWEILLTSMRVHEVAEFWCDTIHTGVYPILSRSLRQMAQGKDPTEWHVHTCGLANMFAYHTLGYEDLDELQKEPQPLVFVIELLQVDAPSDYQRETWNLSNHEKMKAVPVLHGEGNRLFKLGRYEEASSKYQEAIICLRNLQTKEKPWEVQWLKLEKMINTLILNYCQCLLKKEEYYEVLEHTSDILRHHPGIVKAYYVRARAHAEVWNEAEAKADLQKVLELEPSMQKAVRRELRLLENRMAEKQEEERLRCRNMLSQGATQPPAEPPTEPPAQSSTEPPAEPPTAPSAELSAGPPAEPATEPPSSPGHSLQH
# experiment summary: FRET or BRET
No end group written: not given here. *: point of attachment. Farnesyl = CC(C)=CCC/C(C)=C/CC/C(C)=C/C*
measured quantity: Kd
Please state the number and follow it with the unit.

Task item: Please report the recorded Kd for GAPASKSC(Farnesyl) (also: Cys carboxymethylated, AMCA-X conjugated) [AMCA-labeled C-terminal peptide of mouse PDE6A, S-farnesylated and carboxymethylated] .
Reply: 200 nM
